- tested system: CDK4/Cyclin D1 (Homo sapiens (Human), UniProt P11802)
- Sequence (P11802 whole entry): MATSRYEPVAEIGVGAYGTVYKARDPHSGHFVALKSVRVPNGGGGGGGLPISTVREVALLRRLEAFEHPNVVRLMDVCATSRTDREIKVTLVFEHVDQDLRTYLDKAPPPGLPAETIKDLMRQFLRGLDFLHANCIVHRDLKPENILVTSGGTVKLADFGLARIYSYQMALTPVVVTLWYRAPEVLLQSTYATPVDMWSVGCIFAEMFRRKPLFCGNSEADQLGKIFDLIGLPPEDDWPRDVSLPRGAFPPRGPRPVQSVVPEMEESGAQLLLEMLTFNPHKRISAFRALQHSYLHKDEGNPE
- Sequence (P24385 whole entry partner): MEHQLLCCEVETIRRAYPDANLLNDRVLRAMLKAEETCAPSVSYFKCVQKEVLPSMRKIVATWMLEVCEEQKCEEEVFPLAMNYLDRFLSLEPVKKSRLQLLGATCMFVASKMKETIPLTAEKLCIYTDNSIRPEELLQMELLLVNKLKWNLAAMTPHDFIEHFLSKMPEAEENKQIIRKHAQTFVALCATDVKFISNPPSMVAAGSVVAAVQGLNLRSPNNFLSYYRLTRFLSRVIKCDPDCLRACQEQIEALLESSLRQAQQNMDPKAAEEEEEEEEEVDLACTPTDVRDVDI
- assay text: CDK4/Cyclin D1 mobility shift assay
- conditions used: activated CDK4/Cyclin D1, 3.5 mM ATP, Morrison fit; read-out: CDK4D1 Ki
measurement label: Ki (nM)

Illustrative cases are given below, each with its answer.
# molecule, unit info, observed measurement
measured = [
    ("C[C@H](O)c1nc2c(F)cc(-c3nc(N[C@@H]4CCOC[C@H]4O)ncc3Cl)cc2n1C(C)(C)C [Example A61]", "nM", 0.2),
    ("CC1(C)OCCn2nc3c(F)cc(-c4nc(N[C@@H]5CCN(S(C)(=O)=O)C[C@H]5O)ncc4Cl)cc3c21 [Example A26]", "nM", 0.2),
    ("CCS(=O)(=O)N1CC[C@@H](Nc2ncc(Cl)c(-c3cc(F)c4nc(C)n(C5COC5)c4c3)n2)[C@H](O)C1 [Example F08]", "nM", 0.5),
    ("CC(C)n1c(CNC2CC2)nc2c(F)cc(-c3nc(N[C@@H]4CCOC[C@H]4O)ncc3Cl)cc21 [Example H11]", "nM", 0.7),
    ("CC(C)n1c(C(F)F)nc2c(F)cc(-c3nc(N[C@@H]4CCN(S(C)(=O)=O)C[C@H]4O)ncc3Cl)cc21 [Example A69]", "nM", 0.7),
]

I. Cc1nc2ccc(-c3cc(N[C@@H]4CCN(S(C)(=O)=O)C[C@H]4O)ncc3Cl)nc2n1C(C)C [Example D04]
II. CS(=O)(=O)N1CC[C@@H](Nc2ncc(Cl)c(-c3cc(F)c4nc(CO)n(CC(F)(F)F)c4c3)n2)[C@H](O)C1 [Example A90]
Task item: Min Ki? I | II Your answer should be the label of the entry you select.
Reply: II
(II: 0.2 nM, I: 0.6 nM)

* * *

- tested system: CDK4/Cyclin D1 (Homo sapiens (Human))
- assay text: CDK4/Cyclin D1 mobility shift assay
- conditions used: activated CDK4/Cyclin D1, 3.5 mM ATP, Morrison fit; read-out: CDK4D1 Ki
measurement label: Ki (nM)

The following molecules have reported results that may help.
# molecule, tested system, unit info, Ki
records = [
    ("CNCc1nc2c(F)cc(-c3nc(N[C@@H]4CCOC[C@H]4O)ncc3Cl)cc2n1C(C)C", "CDK4/Cyclin D1 (Homo sapiens (Human))", "nM", 4.9),
    ("Cc1nc2c(F)cc(-c3nc(N[C@@H]4CCN(C(=O)CO)C[C@H]4O)ncc3F)cc2n1C(C)C", "CDK4/Cyclin D1 (Homo sapiens (Human))", "nM", 0.5),
    ("CC(C)n1cnc2c(Cl)cc(-c3nc(N[C@@H]4CCN(C(=O)[C@@H](C)O)C[C@H]4O)ncc3Cl)cc21", "CDK4/Cyclin D1 (Homo sapiens (Human))", "nM", 2),
    ("CNCC(=O)N1CC[C@@H](Nc2ncc(Cl)c(-c3cc(F)c4ncn(C(C)(C)C)c4c3)n2)[C@H](O)C1", "CDK4/Cyclin D1 (Homo sapiens (Human))", "nM", 1.2),
    ("CC1CNCc2nc3c(F)cc(-c4nc(N[C@@H]5CCOC[C@H]5O)ncc4Cl)cc3n21 (single isomer, unassigned) [Example A55]", "CDK4/Cyclin D1 (Homo sapiens (Human))", "nM", 3.2),
]

a. Cc1nc2cc(F)c(-c3nc(N[C@@H]4CCN(S(C)(=O)=O)C[C@H]4O)ncc3Cl)cc2n1C(C)C
b. COC(=O)N1CC[C@@H](Nc2ncc(F)c(-c3cc(F)c4nc(C)n(C(C)C)c4c3)n2)[C@H](O)C1
c. Cc1nc2ccc(-c3cc(N[C@@H]4CCOC[C@H]4O)ncc3Cl)nc2n1C(C)C
d. CC(O)c1nc2c(F)cc(-c3nc(N[C@@H]4CCN(S(=O)(=O)C(F)F)C[C@H]4O)ncc3Cl)cc2n1C(C)C (some centres unmarked) [Example F10]
e. Cc1nc2c(F)cc(-c3nc(N[C@@H]4CCN(S(C)(=O)=O)C[C@H]4O)ncc3F)cc2n1C(C)C
Task item: Order the entries by their reported Ki, beginning at the minimum. Provide your answer as the labels ordered per the instruction.
Reply: e, d, b, a, c
(e: 0.1 nM, d: 0.5 nM, b: 0.8 nM, a: 1.4 nM, c: 2.2 nM)

I. CC(C)n1c(CC(C)(C)N)nc2c(F)cc(-c3nc(N[C@@H]4CCOC[C@H]4O)ncc3Cl)cc21
II. Cc1nc2c(F)cc(-c3nc(N[C@@H]4CCN(S(C)(=O)=O)C[C@H]4O)ncc3Cl)cc2n1CC(C)N (some centres unmarked)
Task item: Please indicate which has the smaller reported Ki: I , or II . // caller expects the label of the chosen entry
Reply: II

* * *

- tested system: CDK4 (Homo sapiens (Human), UniProt P11802)
- Sequence (P11802 2-303): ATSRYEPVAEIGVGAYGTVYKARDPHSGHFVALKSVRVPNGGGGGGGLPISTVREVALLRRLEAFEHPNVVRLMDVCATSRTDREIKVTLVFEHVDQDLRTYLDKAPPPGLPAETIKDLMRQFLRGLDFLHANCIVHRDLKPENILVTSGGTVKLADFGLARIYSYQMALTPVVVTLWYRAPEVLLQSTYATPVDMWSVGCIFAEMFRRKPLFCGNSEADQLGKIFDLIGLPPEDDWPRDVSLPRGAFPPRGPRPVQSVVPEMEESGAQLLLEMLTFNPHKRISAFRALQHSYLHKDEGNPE
- Sequence (P24385 whole entry partner): as the sequence (P24385 whole entry partner) above
- assay text: Phospho-Serine 795 Rb ELISA assay in JEKO-1 cells
- conditions used: overnight treatment, phospho-Rb S795, read-out: CDK4 pRB S795 ELISA JEKO-1 cells IC50
pIC50: −log10 of the molar value.
measurement label: pIC50

Some solved entries appear below for comparison.
# compound, pIC50
measured = [
    ("Cc1cnc(N[C@@H]2CCN(S(C)(=O)=O)C[C@H]2O)nc1-c1cc(F)c2nc(C)n(C(C)C)c2c1", 6.40),
    ("Cc1nc2cc(F)c(-c3nc(N[C@@H]4CCN(S(C)(=O)=O)C[C@H]4O)ncc3Cl)cc2n1C(C)C", 7.06),
    ("CC(C)n1c(CN2CCC2)nc2c(F)cc(-c3nc(N[C@@H]4CCOC[C@H]4O)ncc3Cl)cc21", 7.32),
    ("CNCC(=O)N1CC[C@@H](Nc2ncc(F)c(-c3cc(F)c4nc(C)n(C(C)C)c4c3)n2)[C@H](O)C1", 6.16),
    ("CC(C)n1c(C(C)(C)O)nc2c(F)cc(-c3nc(N[C@@H]4CCOC[C@H]4O)ncc3F)cc21", 7.31),
    ("Cc1nc2cc(Cl)c(-c3nc(N[C@@H]4CCN(S(C)(=O)=O)C[C@H]4O)ncc3F)cc2n1C(C)C", 6.75),
    ("CC(C(F)F)n1c(CO)nc2c(F)cc(-c3nc(N[C@@H]4CCN(S(C)(=O)=O)C[C@H]4O)ncc3Cl)cc21 (stereo partly drawn)", 7.62),
    ("C[C@@H](O)c1nc2c(F)cc(-c3nc(N[C@@H]4CCOC[C@H]4O)ncc3Cl)cc2n1C(C)(C)C", 7.19),
    ("CC(C)n1c(CN2CC(C)(O)C2)nc2c(F)cc(-c3nc(N[C@@H]4CCOC[C@H]4O)ncc3Cl)cc21", 6.86),
    ("Cc1nc2cc(F)c(-c3ccnc(N[C@@H]4CCN(S(C)(=O)=O)C[C@H]4O)n3)cc2n1C(C)C", 6.65),
]

I. CC(C)n1c(CN(C)C)nc2c(F)cc(-c3nc(N[C@@H]4CCOC[C@H]4O)ncc3Cl)cc21
II. CNCC(=O)N1CC[C@@H](Nc2ncc(Cl)c(-c3cc(F)c4ncn(C(C)(C)C)c4c3)n2)[C@H](O)C1
Task item: Compare pIC50: is it lower for I or for II ? Give the chosen item's label as your response.
Reply: II
(II: 6.34, I: 7.28)

* * *

- tested system: CDK4 (Homo sapiens (Human), UniProt P11802)
- assay text: Phospho-Serine 795 Rb ELISA assay in JEKO-1 cells
- conditions used: overnight treatment, phospho-Rb S795, read-out: CDK4 pRB S795 ELISA JEKO-1 cells IC50
measurement label: IC50 (nM)

Worked cases, answers included:
# molecule, measurement label, observed measurement
records = [
    ("Cc1nc2c(F)cc(-c3nc(N[C@@H]4CCN(C(=O)CO)C[C@H]4O)ncc3F)cc2n1C(C)C", "IC50", 83.2),
    ("CC(C)n1c(CO)nc2c(F)cc(-c3nc(N[C@@H]4CCN(S(C)(=O)=O)C[C@H]4O)ncc3Cl)cc21", "IC50", 40.1),
    ("CC(O)c1nc2c(F)cc(-c3nc(N[C@@H]4CCN(S(=O)(=O)C(F)F)C[C@H]4O)ncc3Cl)cc2n1C(C)C (some centres unmarked)", "IC50", 41.3),
    ("CC(C)n1c(CN2CC(F)C2)nc2c(F)cc(-c3nc(N[C@@H]4CCOC[C@H]4O)ncc3Cl)cc21", "IC50", 79.6),
    ("CC(C)n1c([C@H](C)N)nc2c(F)cc(-c3nc(N[C@@H]4CCOC[C@H]4O)ncc3Cl)cc21", "IC50", 67.3),
]

P. Cc1nc2ccc(-c3cc(N[C@@H]4CCN(S(C)(=O)=O)C[C@H]4O)ncc3Cl)nc2n1C(C)C
Q. CC(N)c1nc2c(F)cc(-c3nc(N[C@@H]4CCN(S(C)(=O)=O)C[C@H]4O)ncc3Cl)cc2n1C(C)C (single isomer, unassigned) [Example A48]
R. Cc1nc2c(F)cc(-c3nc(N[C@@H]4CCN(S(C)(=O)=O)C[C@H]4O)ncc3Cl)cc2n1C1COC1
S. Cc1nc2c(F)cc(-c3nc(N[C@@H]4CCN(S(C)(=O)=O)C[C@H]4O)ncc3Cl)cc2n1C(C)C
T. CC(C)n1c(C(C)(C)O)nc2c(F)cc(-c3nc(N[C@@H]4CCN(S(C)(=O)=O)C[C@H]4O)ncc3Cl)cc21
Task item: Order the items by recorded IC50; the first position goes to the largest value. Rank the items, then write their labels in that order.
Reply: R, P, Q, S, T

I. CC1(C)OCCn2nc3c(F)cc(-c4nc(N[C@@H]5CCOC[C@H]5O)ncc4Cl)cc3c21
II. CC(C)(CN)n1cnc2c(F)cc(-c3nc(N[C@@H]4CCOC[C@H]4O)ncc3Cl)cc21
Task item: Field: entry with larger IC50 (options I / II ). Selection: enter the item's label.
Reply: II
(II: 245 nM, I: 75.6 nM)
